Listed next: entries and their corresponding viability at 28.5 h, 10 µM.
experiment: in vitro; conditions: human, hela cells, % viability

# compound, viability at 28.5 h, 10 µM (%)
measured = [
    ("O=[N+]([O-])c1ccc(-c2nc3ccc(Br)cn3[n+]2[O-])cc1 [CBK262335]", 96.5),
    ("COc1c[nH]c(C(=O)NC(CCn2ccnc2)c2ccccc2)cc1=O (stereo not drawn) [CBK306743]", 94),
    ("O=S(=O)(c1ccc(-c2ccccc2)cc1)N1CCCN(Cc2cccc(F)c2F)CC1 [CBK063111]", 113),
    ("O=C(NC1CCN(c2ncccn2)CC1)c1cccnc1O [CBK297739]", 99.7),
    ("CCN(CC)C(=O)Cn1nc(C)n2c(cc3ccsc32)c1=O [CBK284104]", 97.3),
    ("O=C(O)c1cc(C(=O)O)cc(N2C(=O)c3ccc(S(=O)(=O)c4ccc5c(c4)C(=O)N(c4cc(C(=O)O)cc(C(=O)O)c4)C5=O)cc3C2=O)c1 [CBK261336]", 100),
    ("CC(=O)N1CCN(c2nnc(-c3ccccc3)o2)CC1 [CBK170332]", 87.9),
    ("OC[C@H]1CCCN1c1nc(Br)cn2ccnc12 [CBK085496]", 101),
    ("Nc1nonc1-c1noc(-c2cccc(Cl)c2)n1 [CBK026691]", 90.2),
]

---

experiment: in vitro; conditions: human, hela cells, % viability

# molecule, viability at 28.5 h, 10 µM, %
measured = [
    ("O=C(O)C1C(c2ccccc2)C(C(=O)Oc2cccc3ccccc23)C1c1ccccc1 (stereo not drawn)", 110),
    ("Cn1c(CN2C[C@H](O)C[C@H]2c2nc(-c3ccccc3)no2)nc2ccccc21", 78.7),
    ("Cc1ccc(S(=O)(=O)Nc2ccsc2C(=O)N2CCOCC2)cc1", 99.9),
    ("c1ccc2c(CSc3ncn[nH]3)cccc2c1", 114),
    ("CC(C)n1c(=O)n(C(=O)c2ccco2)c2cccnc21", 102),
    ("Cc1nn(CCC#N)c2nc(-c3ccc(F)cc3)cc(C(=O)O)c12", 94.7),
    ("O=C(COc1ccccc1)NC(=S)Nc1cc(-c2nc3ncccc3o2)ccc1Cl", 89.3),
    ("CCC(CC)C(=O)N1CCC(c2nnc3n2CCCCC3)CC1", 86.6),
    ("N#C/C(=C\\c1ccc(OCC(=O)O)cc1)C(N)=S", 102),
    ("CCOc1ccc(C(=O)Nc2ccc(-c3nc4cc(C)c(C)cc4o3)cc2)cc1[N+](=O)[O-]", 94.2),
    ("Cc1nc(N2CCOCC2)cc(N2CCN(C(=O)C3CCCC3)CC2)n1", 87.5),
    ("CSCCC(NC(=O)c1ccc(S(=O)(=O)N2CC(C)OC(C)C2)cc1)C(=O)O (stereo not drawn)", 104),
    ("CCCc1n[nH]c(-c2ccc(Cl)cc2Cl)c1C(=O)OCC", 107),
    ("O=C(NCC1(CCO)CCOC1)c1c[nH]nc1-c1cc2ccccc2o1 (stereo not drawn)", 103),
    ("CC(=O)c1c(C)oc(C)c1C(C)=O", 88.2),
    ("CO[C@@]12CC[C@@H](O)C[C@@H]1N(C(=O)c1cccc3c1NCCC3)CC2", 109),
    ("COc1ccc(NC(=O)c2cc(-c3cccnc3)nc3c(C)c(C)ccc23)c(OC)c1", 96.2),
    ("Cc1ccccc1-n1c(=O)cc(N2CCN(c3ccc(F)cc3)CC2)[nH]c1=O", 95.1),
    ("CCOC(=O)NC(Nn1cnnc1)(C(F)(F)F)C(F)(F)F", 117),
    ("O=[N+]([O-])c1cc(C(F)(F)F)ccc1N(CCO)CCO", 94.9),
    ("NCCCNC(=O)c1ccc(/C=N/O)nc1", 110),
    ("COCCNC(=O)N(CCC#N)C1CCCCC1", 97.3),
    ("Oc1cccc(OCCOc2cccc(C(F)(F)F)n2)c1", 84.7),
    ("CC(C)c1n[nH]c(C2CN(Cc3nc4c(F)cccc4[nH]3)CCO2)n1 (stereo not drawn)", 98.8),
    ("CCOC(=O)CCNC(=O)c1ccccc1-n1cccc1", 95.3),
    ("CC(C)c1ccc(S(=O)(=O)N2CCN(c3ncnc4c3oc3ccccc34)CC2)cc1", 84.9),
    ("COc1cc(C#N)ccc1OCc1ccccc1", 62),
    ("CS(=O)(=O)c1ccc(CN2C(=O)CC3(CCN(C(=O)c4ccc([N+](=O)[O-])cc4)CC3)C2=O)cc1", 99),
    ("Cc1cc(C)cc(Oc2nccn3c(=O)[nH]nc23)c1", 89.5),
    ("O=C(O)C1C2CCC(O2)C1C(=O)N1CCN(Cc2ccc(Cl)cc2)CC1 (stereo not drawn)", 97.5),
    ("Nc1nc2cccnc2cc1-c1ccc2c(c1)OCCCO2", 97.7),
    ("O=C(O)c1ccc(N2C(=O)CC(N3CCN(CCO)CC3)C2=O)cc1 (stereo not drawn)", 88.9),
    ("CCCn1nnc(NC(=O)C(C)Oc2ccc(Cl)cc2Cl)n1 (stereo not drawn)", 98.6),
    ("COc1ccc(-c2cc(C(=O)N3CCN(C(C)=O)CC3)cnc2-c2ccc(Cl)cc2)cc1", 102),
    ("CCC(CO)Nc1cncc(-c2cc(C(C)C)ccc2OC)n1 (stereo not drawn)", 91.7),
    ("C[C@H]1CN([C@H]2C[C@@H](O)[C@@H](CO)O2)C(=O)NC1=O", 96.9),
    ("NC(=O)C(=O)Nc1nc(-c2ccccc2)cs1", 98.4),
    ("COc1ccc(-c2ccc(C(=O)N(C)C)c(N3CCN(C(=O)c4ccco4)CC3)n2)cc1", 86.3),
    ("Clc1ccc(SCCN2CCOCC2)cc1 [CBK265055G]", 98.8),
]
